Measured values drawn from patent US8575135B2 for this set.

Listed here are molecules together with their documented pEC50.
# Tested on: stable HCV 1a RLuc replicon cells (genotype 1a H77 replicon)
# assayExplanation: microbe, parasite or virus in culture
# Format: cell-based
# protocolConditions: Hepatitis C virus, read-out: 1a
pEC50: −log10 of the molar value.

molecule | pEC50
COC[C@H]1C[C@@H](c2ncc(-c3ccc4c(c3)COc3cc5c(cc3-4)CCc3nc([C@@H]4CC[C@H](C)N4C(=O)[C@@H](NC(=O)OC)C(C)C)[nH]c3-5)[nH]2)N(C(=O)[C@H](NC(=O)OC)c2ccccc2)C1 | > 9.00
CCC(C)C(NC(=O)OC)C(=O)N1CC(COC)C[C@H]1c1nc2ccc3cc4c(cc3c2[nH]1)OCc1cc(-c2cnc(C3C[C@H](C)CN3C(=O)[C@@H](NC(=O)OC)C(C)CC)[nH]2)ccc1-4 (stereo in doubt) | > 9.00
COC[C@H]1C[C@@H](c2nc3c([nH]2)-c2cc4c(cc2CC3)-c2ccc(-c3cnc([C@@H]5CC[C@H](C)N5C(=O)[C@@H](NC(=O)OC)C(C)C)[nH]3)cc2CO4)N(C(=O)[C@H](NC(=O)OC)c2ccccc2)C1 | > 9.00
COC[C@H]1C[C@@H](c2nc3ccc4cc5c(cc4c3[nH]2)OCc2cc(-c3cnc([C@@H]4CCCN4C(=O)[C@@H](NC(=O)OC)[C@@H](C)OC)[nH]3)ccc2-5)N(C(=O)[C@H](NC(=O)OC)c2ccccc2)C1 | > 9.00

====

# System: NS5A chimeric genotype 2a JFH-1 replicon with genotype 2b MD2b-1 strain NS5A gene (M31 present)
# assayExplanation: microbe, parasite or virus in culture
# Assay type: cell-based, HCV
# protocolConditions: Hepatitis C virus, read-out: 2b (t) (nM)
// NB: equality with 0.1 nM counts as 0; only EC50 strictly below is 1

molecule | classification
CCC(C)[C@H](NC(=O)OC)C(=O)N1C[C@@H](C)CC1c1ncc(-c2ccc3c(c2)COc2cc4c(ccc5nc([C@@H]6CC(COC)CN6C(=O)[C@@H](NC(=O)OC)C(C)OC)[nH]c54)cc2-3)[nH]1 (stereo in doubt) [Example QD] | 0
COC(=O)N[C@H](C(=O)N1CCC[C@H]1c1ncc(-c2ccc3c(c2)COc2cc4c(ccc5nc([C@@H]6C[C@H](C)CN6C(=O)[C@@H](NC(=O)OC)C(C)C)[nH]c54)cc2-3)[nH]1)C(C)C [Compound 526] | 0
COC(=O)N[C@H](C(=O)N1C[C@@H](C)C[C@H]1c1nc2ccc3cc4c(cc3c2[nH]1)OCc1cc(-c2cnc([C@@H]3CCCN3C(=O)[C@H](NC(=O)OC)c3ccccc3)[nH]2)ccc1-4)C(C)C [Example NB] | 1
COC[C@H]1C[C@@H](c2nc3ccc4cc5c(cc4c3[nH]2)OCc2cc(-c3cnc([C@@H]4CCCN4C(=O)[C@@H](NC(=O)OC)[C@@H](C)OC)[nH]3)ccc2-5)N(C(=O)[C@H](NC(=O)OC)c2ccccc2)C1 [Example OT] | 1
COC[C@H]1C[C@@H](c2nc3c([nH]2)-c2cc4c(cc2CC3)-c2ccc(-c3cnc([C@@H]5CC[C@H](C)N5C(=O)[C@@H](NC(=O)OC)C(C)C)[nH]3)cc2CO4)N(C(=O)[C@H](NC(=O)OC)c2ccccc2)C1 [Example OP] | 1
COC(=O)N[C@H](C(=O)N1[C@@H](C)CC[C@H]1c1ncc(-c2ccc3c(c2)COc2cc4c(ccc5nc([C@@H]6C[C@H](C)CN6C(=O)[C@@H](NC(=O)OC)[C@@H](C)OC)[nH]c54)cc2-3)[nH]1)C(C)C [Example NL] | 1
